- System: L6
- test.description: Cytotoxicity against rat L6 cells
- Format: cell-based
endpoint: log10(IC50) (log10 of the value in µM)
// units: µM (pre-log); metric: IC50; scale: log10

Look over these answered cases.
O=C(NN1CCc2ccccc2C1)c1cc([N+](=O)[O-])ccc1Cl; 1.34
O=C(Cc1cc([N+](=O)[O-])ccc1F)NN1Cc2ccccc2C1; 2.23
O=c1c2cc([N+](=O)[O-])ccc2[nH]n1Cc1ccccn1; 2.46

Report log10(IC50) for each item below.
1. CCCn1c2ccc([N+](=O)[O-])cc2c(=O)n1Cc1ccccc1
2. O=C(NN(Cc1ccccc1)Cc1ccccc1)c1cc([N+](=O)[O-])ccc1F
3. CON1C(=O)C2CCCCN2c2ccc([N+](=O)[O-])cc21 (stereo unspecified)
4. CN(C)CCOc1nn(Cc2ccccc2)c2ccc([N+](=O)[O-])cc12

# output
1. 1.89
2. 1.29
3. 1.83
4. 1.76

Parameter requested: log10(IC50). Apply to each item below.
1. CN1C(=O)CN(CCCCCN2CCCCC2)c2ccc([N+](=O)[O-])cc21
2. Cn1c2ccc([N+](=O)[O-])cc2c(=O)n1-c1ccccc1

# output
1.72
1.82

Hello, the source for this data is ChEMBL document CHEMBL2046395, in case you need it.
